Tested on: S. Typhimurium SL1344 (sifB::gfp) in RAW 264.7 macrophages
Assay: SAFIRE macrophage assay: intracellular bacterial load (GFP signal within macrophages)
Type: cell-based, Salmonella enterica serotype Typhimurium
Conditions: 25 uM; 'Toxic' given instead of a score
Readout: 25 uM Avg Antibacterial Score
Numbers only.

Sample records with 25 uM Avg Antibacterial Score:
>  <Molecule>
CN(C)CC1COCCN1CC(O)COc1ccc(Cl)c(Cl)c1 (centres unmarked)

>  <Experimental system>
S. Typhimurium SL1344 (sifB::gfp) in RAW 264.7 macrophages

>  <25 uM Avg Antibacterial Score>
84

$$$$
>  <Molecule>
OC(CNC1CCNCC1)COc1cc(Cl)cc(Cl)c1 (centres unmarked)

>  <Experimental system>
S. Typhimurium SL1344 (sifB::gfp) in RAW 264.7 macrophages

>  <25 uM Avg Antibacterial Score>
11

$$$$
>  <Molecule>
NCC1CCN(CC(O)COc2cc(Cl)cc(Cl)c2)C1 (centres unmarked)

>  <Experimental system>
S. Typhimurium SL1344 (sifB::gfp) in RAW 264.7 macrophages

>  <25 uM Avg Antibacterial Score>
14

$$$$

Now look at this one.
Requested field: 25 uM Avg Antibacterial Score. Item: O=C1OC(COc2ccc(Cl)c(Cl)c2)CN1c1ccc(N2CCOCC2)cc1 (centres unmarked)
103
